system: Leishmania donovani; assay: Leishmania intramacrophage assay; assay type: functional, organism-based; set-up: scale not given: in the data most compounds retested in dose-response had high values; settings: 30.3 µM; […]
Screen size: about 69,000 compounds; about 1,000 (1.4%) showed an effect of 50% or more. The sample as a whole holds a higher share of strong results than the screen did.
Reported Percent Effect maps to class as: lower segment: < 20%; middle segment: ≥ 20% and < 30%; upper segment: ≥ 30%

>>> df
                                    compound  assigned_class
 0  CC(C)c1nc(-c2cc(C(=O)NCCN(C)C)c3ccccn23)cs1.O=C(O)C(F)(F)F   upper segment
 1    Cc1[nH]c2ccc(Cl)cc2c1CCNc1ncnc2c1CCNC2   upper segment
 2      O=c1[nH]ncc(NCCOc2ccc3c(c2)CCC3)c1Cl   upper segment
 3  Cc1nc(-c2cc(C(=O)NCCN3CCOCC3)c3ccccn23)cs1.O=C(O)C(F)(F)F   lower segment
 4              COCc1cc(NCCCSc2nnc(C)s2)ncn1  middle segment
 5  CN1CCC(c2n[nH]c3ncccc23)C1.O=CO (centres undefined)   lower segment
 6  CC(C)c1nc(C(=O)N2C[C@H](C(C)C)[C@@H](N)C2)cs1   upper segment
 7     Cc1nc(CNc2ccc(C(=O)NCc3ccco3)cc2C)no1   lower segment
 8  Cc1cc(C)c(CNC(=O)N2CCCN(C(=O)C(C)C)CC2)c(C)c1   lower segment
 9  CN(CCC#N)C(=O)CN1CCCN(Cc2noc(C3CC3)n2)CC1  middle segment
10     Cn1ccnc1CN1CCC2(CC1)COCCN(c1ncccn1)C2   upper segment
11         O=c1[nH]ncc(NCCOc2cccc(Br)c2)c1Cl   upper segment
12  NC(=O)[C@@H]1CCCN1C(=O)c1csc(-c2ccc(C(F)(F)F)cc2)n1  middle segment
13  Cn1nc2c(cc1=O)CN(Cc1coc(-c3ccccc3)n1)CC2   lower segment
14  Cc1[nH]c2ccc(C#N)cc2c1CCNc1ncnc2c1CCNCC2   lower segment
15      CCc1ncc(C(=O)N2CC(Oc3ccccc3Cl)C2)cn1   lower segment
16         CC(C)C(=O)Nc1ncn(Cc2cccc(Br)c2)n1  middle segment
17            Cc1nnc(SCCCNc2cc(C3CC3)ncn2)s1   upper segment
18          CC(C)N1Cc2cccc(NCC(=O)N(C)C)c2C1   upper segment
19  O=C(C1CC2(CCNCC2)CN1)N1CCN(c2ccccc2)CC1 (centres undefined)   lower segment
20  CCn1nc2c(cc1=O)CN(Cc1coc(-c3ccccc3)n1)CC2   upper segment
